Here, each record is paired with measured viability, T/C data.
Tested on: PDC KRAS tumor spheroids with HUVEC/MSC, viability;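 further: spheroids exposed to compounds for seven days before readout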
assayOverview: Anticancer human tumor 349418-098-R-PDC patient-derived lung adenocarcinoma cell line growth inhibition [KRAS2]
testContext: second compound 0.1 µM; first compound 0.0316 µM; stronger effect = lower value
quantityName: viability, T/C

compound="COc1cc(Nc2ncc3c(n2)-c2ccc(Cl)cc2C(c2c(F)cccc2OC)=NC3)ccc1C(=O)O + COc1cc2nc(C)nc(NC(C)c3cc(N)cc(C(F)(F)F)c3)c2cc1OC1CCOC1" measurementtarget="PDC KRAS tumor spheroids with HUVEC/MSC, viability" observedresult=60%
compound="CCN1CCN(Cc2ccc(Nc3ncc(F)c(-c4cc(F)c5nc(C)n(C(C)C)c5c4)n3)nc2)CC1 + CNCc1ccccc1-c1csc(C(C)Nc2nc(C)nc3cc(OC)c(OC)cc23)c1" measurementtarget="PDC KRAS tumor spheroids with HUVEC/MSC, viability" observedresult=21.4%
compound="CCN1CCN(Cc2ccc(Nc3ncc(F)c(-c4cc(F)c5nc(C)n(C(C)C)c5c4)n3)nc2)CC1 + C=CC(=O)N1CCN(c2nc(OCC3CCCN3C)nc3c2CCN(c2cccc4cccc(C)c24)C3)CC1CC#N" measurementtarget="PDC KRAS tumor spheroids with HUVEC/MSC, viability" observedresult=20.2%
compound="COc1cc(Nc2ncc3c(n2)-c2ccc(Cl)cc2C(c2c(F)cccc2OC)=NC3)ccc1C(=O)O + CC1OCC2(CCN(c3cnc(Sc4ccnc(N)c4Cl)c(N)n3)CC2)C1N" measurementtarget="PDC KRAS tumor spheroids with HUVEC/MSC, viability" observedresult=56.5%
compound="O=C(c1cc(Cc2n[nH]c(=O)c3ccccc23)ccc1F)N1CCN(C(=O)C2CC2)CC1 + CC1OCC2(CCN(c3cnc(Sc4ccnc(N)c4Cl)c(N)n3)CC2)C1N" measurementtarget="PDC KRAS tumor spheroids with HUVEC/MSC, viability" observedresult=95.9%
compound="CC1(C)CCC(CN2CCN(c3ccc(C(=O)NS(=O)(=O)c4ccc(NCC5CCOCC5)c([N+](=O)[O-])c4)c(Oc4cnc5[nH]ccc5c4)c3)CC2)=C(c2ccc(Cl)cc2)C1 + C=CC(=O)N1CCN(c2nc(=O)n(-c3c(C)ccnc3C(C)C)c3nc(-c4c(O)cccc4F)c(F)cc23)C(C)C1" measurementtarget="PDC KRAS tumor spheroids with HUVEC/MSC, viability" observedresult=99.6%
compound="CCN1CCN(Cc2ccc(Nc3ncc(F)c(-c4cc(F)c5nc(C)n(C(C)C)c5c4)n3)nc2)CC1 + CC1OCC2(CCN(c3cnc(Sc4ccnc(N)c4Cl)c(N)n3)CC2)C1N" measurementtarget="PDC KRAS tumor spheroids with HUVEC/MSC, viability" observedresult=21.4%
compound="CC(C)n1nc(-c2ccc3oc(N)nc3c2)c2c(N)ncnc21 + COc1cc2nc(C)nc(NC(C)c3cc(N)cc(C(F)(F)F)c3)c2cc1OC1CCOC1" measurementtarget="PDC KRAS tumor spheroids with HUVEC/MSC, viability" observedresult=9.94%
compound="CC1OCC2(CCN(c3cnc(Sc4ccnc(N)c4Cl)c(N)n3)CC2)C1N (stereo unspecified) + C=CC(=O)N1CCN(c2nc(=O)n(-c3c(C)ccnc3C(C)C)c3nc(-c4c(O)cccc4F)c(F)cc23)C(C)C1" measurementtarget="PDC KRAS tumor spheroids with HUVEC/MSC, viability" observedresult=109%
compound="CC1COCCN1c1cc(-c2ccnn2C)c2ccnc(-c3ccn[nH]3)c2n1 (stereo unspecified) + CC1OCC2(CCN(c3cnc(Sc4ccnc(N)c4Cl)c(N)n3)CC2)C1N" measurementtarget="PDC KRAS tumor spheroids with HUVEC/MSC, viability" observedresult=48.2%
compound="Cn1nccc1Nc1nccc(-c2cc3c(s2)C(C)(C)N(CCN2CCOCC2)C3=O)n1 + C=CC(=O)N1CCN(c2nc(=O)n(-c3c(C)ccnc3C(C)C)c3nc(-c4c(O)cccc4F)c(F)cc23)C(C)C1" measurementtarget="PDC KRAS tumor spheroids with HUVEC/MSC, viability" observedresult=75.7%
